STUDY_SYSTEM: T1, DDB1·CRBN precomplexed with pomalidomide (human, UniProt Q96SW2 1-442; Q16531 1-1140)
T1 construct: also called CRBN·pomalidomide
T1 sequence (Q96SW2 whole entry, chain 1 of 2): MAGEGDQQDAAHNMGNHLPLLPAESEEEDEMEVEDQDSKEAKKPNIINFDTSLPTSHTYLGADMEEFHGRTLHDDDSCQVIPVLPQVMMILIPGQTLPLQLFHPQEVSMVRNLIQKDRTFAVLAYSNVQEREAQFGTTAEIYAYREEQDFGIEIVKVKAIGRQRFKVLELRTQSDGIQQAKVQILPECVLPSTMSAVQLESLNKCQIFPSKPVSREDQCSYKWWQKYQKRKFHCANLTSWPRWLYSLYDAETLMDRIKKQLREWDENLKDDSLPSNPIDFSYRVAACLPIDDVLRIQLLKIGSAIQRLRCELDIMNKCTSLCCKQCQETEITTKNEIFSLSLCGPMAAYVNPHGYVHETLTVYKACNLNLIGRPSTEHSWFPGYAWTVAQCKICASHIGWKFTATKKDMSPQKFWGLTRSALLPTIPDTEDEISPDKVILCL
T1 sequence (Q16531 whole entry, chain 2 of 2): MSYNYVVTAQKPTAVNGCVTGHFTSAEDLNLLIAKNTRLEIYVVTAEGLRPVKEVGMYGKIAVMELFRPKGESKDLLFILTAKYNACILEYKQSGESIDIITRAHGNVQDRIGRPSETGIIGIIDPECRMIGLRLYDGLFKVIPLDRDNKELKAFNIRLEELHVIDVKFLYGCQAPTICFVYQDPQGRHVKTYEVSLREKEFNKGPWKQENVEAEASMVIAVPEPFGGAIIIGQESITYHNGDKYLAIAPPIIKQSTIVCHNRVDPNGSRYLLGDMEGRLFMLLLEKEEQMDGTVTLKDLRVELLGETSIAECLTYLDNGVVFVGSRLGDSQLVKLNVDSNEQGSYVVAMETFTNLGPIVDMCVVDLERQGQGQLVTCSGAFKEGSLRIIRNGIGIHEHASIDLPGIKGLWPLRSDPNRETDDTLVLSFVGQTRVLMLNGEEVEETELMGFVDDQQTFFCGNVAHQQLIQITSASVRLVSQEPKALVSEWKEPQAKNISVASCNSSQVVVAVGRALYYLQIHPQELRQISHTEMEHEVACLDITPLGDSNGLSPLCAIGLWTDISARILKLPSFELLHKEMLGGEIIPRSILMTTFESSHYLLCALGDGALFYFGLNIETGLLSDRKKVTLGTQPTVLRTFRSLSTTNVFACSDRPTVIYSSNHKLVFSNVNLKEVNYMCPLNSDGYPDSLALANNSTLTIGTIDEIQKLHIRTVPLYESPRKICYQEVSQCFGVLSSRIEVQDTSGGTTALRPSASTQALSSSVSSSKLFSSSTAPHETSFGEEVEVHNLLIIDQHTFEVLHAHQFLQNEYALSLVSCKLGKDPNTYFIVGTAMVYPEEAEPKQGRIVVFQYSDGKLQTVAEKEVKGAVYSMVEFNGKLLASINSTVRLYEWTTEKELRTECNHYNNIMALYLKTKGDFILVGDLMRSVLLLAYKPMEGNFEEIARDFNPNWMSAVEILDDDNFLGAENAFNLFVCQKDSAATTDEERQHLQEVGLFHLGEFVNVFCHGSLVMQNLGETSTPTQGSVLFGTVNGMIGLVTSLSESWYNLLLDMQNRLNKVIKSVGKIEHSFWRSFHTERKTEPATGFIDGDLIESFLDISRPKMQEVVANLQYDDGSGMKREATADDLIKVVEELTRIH
EXPERIMENT_NOTES: BLI, immobilized MBP-degron, DDB1·CRBN precomplexed with pomalidomide
Where no end group is shown, it is not given here.
PROPERTY_MEASURED: Kd (nM)
Give the value, in units of nM, as a plain number.

- MBP-SD0 (super degron SD0 fused to maltose binding protein) (designed binder, not shown: large carriers, also called MBP-degron) FNVLMVHKRSHTGERPLQCEICGFTCRQKGNLLRHIKLHTGEKPFKCHLCNYACQRRDAL: 217

## Task Please report the measured Kd for LLLFCPICGFTCRQKGNLLRHINLHTGEKLFKYHLY (designed binder, not shown: large carriers, cysteine pairing not given here; also: fused to maltose binding protein, limits and linker not given here, Expressed and purified from E. coli, immobilized for BLI; also called MBP-degron) [MBP-SD40 (minimal evolved degron SD40 fused to maltose binding protein)]
## Result 295
